Entries annotated with measured EC50
test system: VZV; experiment: Viral qPCR assay, VZV; format: cell-based, varicella zoster virus; conditions: Human alphaherpesvirus 3, 72 h, MeWo or MRC5 cells, 0.04-0.1 pfu/cell, growth medium, viral genome copies by qPCR

Past entries and their recorded results:
# compound, EC50
measured = [
    ("COc1nc(-c2ccsc2)c(O[C@H]2CCN3C(=O)OC[C@@H]3C2)cc1C(=O)NCc1ccc(Cl)cc1 [Compound 21]", "417 nM"),
    ("COc1nc(N2CC(C(C)(C)O)C2)c(O[C@H]2CCN3C(=O)OC[C@@H]3C2)cc1C(=O)NCc1ccc(Cl)cc1 [Compound 70]", "409 nM"),
    ("NC(=O)CCOc1nc(-c2cnn(C(F)F)c2)c(O[C@H]2CCN3C(=O)OC[C@@H]3C2)cc1C(=O)NCc1ccc(Cl)cc1 [Compound 100]", "451 nM"),
    ("COc1nc(-c2ccnnc2)c(O[C@H]2CCN3C(=O)OC[C@@H]3C2)cc1C(=O)NCc1ccc(Cl)cc1 [Compound 37]", "178 nM"),
    ("COc1nc(-c2ncco2)c(O[C@H]2CCN3C(=O)OC[C@@H]3C2)cc1C(=O)N[C@@H](C)c1ccc(Cl)cc1 [Compound 64]", "1560 nM"),
]

# query: EC50 of entry COc1nc(N2CC(F)(F)C2)c(O[C@H]2CCN3C(=O)OC[C@@H]3C2)cc1C(=O)NCc1ccc(Cl)cc1 [Compound 65]
758 nM

# query: EC50 of entry COc1nc(-c2ncco2)c(O[C@H]2CCN3C(=O)OC[C@@H]3C2)cc1C(=O)NCc1ccc(Cl)cc1 [Compound 62]
157 nM

###

system: HSV-1 Strain F; assay: Viral qPCR assay, HSV-1; format: cell-based, Herpes Simplex Virus type 1; settings: Vero or MRC5 cells; 0.0005-0.004 pfu/cell; ~72 hrs; growth medium; viral genome copies by qPCR; read-out: HSV1 Cell (EC50)
Entries annotated with measured pEC50
Kindly note that pEC50 refers to -log10 of the concentration in mol/L and answer with the value alone.

Past entries and their recorded results:
# compound, pEC50
measured = [
    ("COc1nc(C2CC2O)c(O[C@H]2CCN3C(=O)OC[C@@H]3C2)cc1C(=O)NCc1ccc(Cl)cc1 (single isomer, unassigned) [Compound 79]", 6.29),
    ("COc1nc(N2CCC(C(C)(C)N)C2)c(O[C@H]2CCN3C(=O)OC[C@@H]3C2)cc1C(=O)NCc1ccc(Cl)cc1 (single isomer, unassigned) [Compound 72]", 6.25),
]

Continue with the compound presented below.
Under HSV-1 Strain F: pEC50 value of COc1nc(N2CCC(C(C)(C)O)C2)c(O[C@H]2CCN3C(=O)OC[C@@H]3C2)cc1C(=O)NCc1ccc(Cl)cc1 (stereo partly drawn) [Compound 68] ?
6.18

###

system: VZV; assay: Viral qPCR assay, VZV; type: cell-based, varicella zoster virus; details: Human alphaherpesvirus 3, 72 h, MeWo or MRC5 cells, 0.04-0.1 pfu/cell, growth medium, viral genome copies by qPCR
Recorded EC50 split into classes bin 1 = under 200 nM, bin 2 = from 200 nM up to 400 nM, bin 3 = 400 nM and over

Use the examples below as a reference point.
# compound, label
records = [
    ("COc1nc(-c2cnc(C3CC3)o2)c(O[C@H]2CCN3C(=O)OC[C@@H]3C2)cc1C(=O)NCc1ccc(Cl)cc1", "bin 1"),
    ("COc1nc(-c2cccs2)c(O[C@H]2CCN3C(=O)OC[C@@H]3C2)cc1C(=O)NCc1ccc(Cl)cc1", "bin 2"),
    ("COc1nc(-c2ccoc2)c(O[C@H]2CCN3C(=O)OC[C@@H]3C2)cc1C(=O)NCc1ccc(Cl)cc1", "bin 2"),
]

Class (by measured EC50) for `COc1nc(-c2ccncc2)c(O[C@H]2CCN3C(=O)OC[C@@H]3C2)cc1C(=O)NCc1ccc(Cl)cc1`
bin 1

###

Entries annotated with measured IC50
target: varicella zoster virus DNA polymerase (Varicella-zoster virus)
Sequence (P09252 whole entry): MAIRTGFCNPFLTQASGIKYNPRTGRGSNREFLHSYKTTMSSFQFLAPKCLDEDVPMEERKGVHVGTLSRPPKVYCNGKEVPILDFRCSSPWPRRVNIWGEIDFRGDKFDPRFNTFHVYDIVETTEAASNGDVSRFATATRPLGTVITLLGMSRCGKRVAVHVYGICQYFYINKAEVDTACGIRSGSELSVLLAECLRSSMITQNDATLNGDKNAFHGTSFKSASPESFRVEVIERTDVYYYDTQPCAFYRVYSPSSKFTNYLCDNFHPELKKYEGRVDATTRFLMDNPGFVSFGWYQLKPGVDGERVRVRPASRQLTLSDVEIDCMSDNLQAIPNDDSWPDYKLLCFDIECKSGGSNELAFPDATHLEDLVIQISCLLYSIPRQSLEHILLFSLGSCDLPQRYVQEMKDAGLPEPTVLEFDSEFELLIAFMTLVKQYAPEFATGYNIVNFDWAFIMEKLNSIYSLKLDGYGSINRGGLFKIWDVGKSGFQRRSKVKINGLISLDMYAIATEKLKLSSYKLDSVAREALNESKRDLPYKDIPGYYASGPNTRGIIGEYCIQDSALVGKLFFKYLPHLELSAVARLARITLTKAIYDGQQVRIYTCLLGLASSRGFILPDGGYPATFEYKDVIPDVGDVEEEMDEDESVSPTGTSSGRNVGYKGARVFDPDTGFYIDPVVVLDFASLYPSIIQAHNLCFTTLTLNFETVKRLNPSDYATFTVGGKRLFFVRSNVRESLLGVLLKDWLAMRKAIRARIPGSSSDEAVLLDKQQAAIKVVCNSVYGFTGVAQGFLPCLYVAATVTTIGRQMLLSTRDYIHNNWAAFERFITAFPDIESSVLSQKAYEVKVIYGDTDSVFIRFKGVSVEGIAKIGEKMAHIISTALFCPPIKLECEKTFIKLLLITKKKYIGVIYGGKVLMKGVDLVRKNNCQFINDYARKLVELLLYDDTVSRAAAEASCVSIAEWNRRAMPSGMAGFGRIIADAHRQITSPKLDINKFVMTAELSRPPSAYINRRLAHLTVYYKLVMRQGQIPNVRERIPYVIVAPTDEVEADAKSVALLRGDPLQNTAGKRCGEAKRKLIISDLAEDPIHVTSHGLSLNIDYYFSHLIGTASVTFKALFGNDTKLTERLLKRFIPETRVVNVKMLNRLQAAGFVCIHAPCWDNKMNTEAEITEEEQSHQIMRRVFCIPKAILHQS
I only need the number, in nM, no unit after it.

# query: IC50 of entry `COc1nc(-c2nc(C)ns2)c(O[C@H]2CCN3C(=O)OC[C@@H]3C2)cc1C(=O)NCc1ccc(Cl)cc1`
0.0412

# query: IC50 of entry `COc1nc(-c2cnc(C3CC3)o2)c(O[C@H]2CCN3C(=O)OC[C@@H]3C2)cc1C(=O)NCc1ccc(Cl)cc1`
0.508

# query: IC50 of entry `COc1nc(-c2ccnnc2)c(O[C@H]2CCN3C(=O)OC[C@@H]3C2)cc1C(=O)NCc1ccc(Cl)cc1`
8.24

# query: IC50 of entry `COc1nc(-c2cnn(Cc3ccccn3)c2)c(O[C@H]2CCN3C(=O)OC[C@@H]3C2)cc1C(=O)NCc1ccc(Cl)cc1`
12.9

# query: IC50 of entry `COc1nc(-c2cnc(N)c(F)c2)c(O[C@H]2CCN3C(=O)OC[C@@H]3C2)cc1C(=O)NCc1ccc(Cl)cc1`
1.53

# query: IC50 of entry `O=C(NCc1ccc(Cl)cc1)c1cc(O[C@H]2CCN3C(=O)OC[C@@H]3C2)c(-c2cnn(C(F)F)c2)nc1OCCO`
0.627

# query: IC50 of entry `CC(C)(O)COc1nc(-c2cnn(C(F)F)c2)c(O[C@H]2CCN3C(=O)OC[C@@H]3C2)cc1C(=O)NCc1ccc(Cl)cc1`
2.96

###

Target: Human cytomegalovirus DNA polymerase (Human cytomegalovirus)
Construct: made in house; host or cells: SF21 insect cells (baculovirus vector)
Assay: CMV polymerase assay (AlphaLISA)
Format: biochemical
Settings: HCMV polymerase 0.2 nM; 30 min pre-incubation; 60 min at 37° C.; read-out: CMV (IC50)
Description: Human cytomegalovirus and varicella zoster virus DNA polymerases were expressed via baculovirus vector in SF21 cells and purified. Heterodimeric nucleic acid substrate used in the herpesvirus polymerase reactions was generated by annealing a 59-mer template to a 17-mer digoxigenin-labeled primer. […] Incorporation of biotinylated UTP was detected with 2.5-5 ug/ml anti-DIG AlphaLISA acceptor beads and 5-10 ug/ml streptavidin AlphaLISA donor beads (PerkinElmer). […]
Entries annotated with measured pIC50
Kindly note that pIC50 refers to -log10 of the concentration in mol/L and answer with the value alone.

# record_smiles, experimental_system, pIC50
measured = [
    ("COc1nc(-c2ccn(C)c2)c(O[C@H]2CCN3C(=O)OC[C@@H]3C2)cc1C(=O)NCc1ccc(Cl)cc1", "Human cytomegalovirus DNA polymerase (Human cytomegalovirus)", 7.84),
    ("COc1csc(-c2nc(OC)c(C(=O)NCc3ccc(Cl)cc3)cc2O[C@H]2CCN3C(=O)OC[C@@H]3C2)c1", "Human cytomegalovirus DNA polymerase (Human cytomegalovirus)", 8.08),
]

Continue with the molecule presented below.
# query: pIC50 of entry `COc1nc(-c2cnc(C3CC3)o2)c(O[C@H]2CCN3C(=O)OC[C@@H]3C2)cc1C(=O)NCc1ccc(Cl)cc1`
7.95

###

Entries annotated with measured IC50
molecular target: Human cytomegalovirus DNA polymerase (Human cytomegalovirus, UniProt P08546); construct: made in house; host or cells: SF21 insect cells (baculovirus vector); experiment: CMV polymerase assay (AlphaLISA); format: biochemical; details: HCMV polymerase 0.2 nM; 30 min pre-incubation; 60 min at 37° C.; read-out: CMV (IC50)
Sequence (P08546 whole entry): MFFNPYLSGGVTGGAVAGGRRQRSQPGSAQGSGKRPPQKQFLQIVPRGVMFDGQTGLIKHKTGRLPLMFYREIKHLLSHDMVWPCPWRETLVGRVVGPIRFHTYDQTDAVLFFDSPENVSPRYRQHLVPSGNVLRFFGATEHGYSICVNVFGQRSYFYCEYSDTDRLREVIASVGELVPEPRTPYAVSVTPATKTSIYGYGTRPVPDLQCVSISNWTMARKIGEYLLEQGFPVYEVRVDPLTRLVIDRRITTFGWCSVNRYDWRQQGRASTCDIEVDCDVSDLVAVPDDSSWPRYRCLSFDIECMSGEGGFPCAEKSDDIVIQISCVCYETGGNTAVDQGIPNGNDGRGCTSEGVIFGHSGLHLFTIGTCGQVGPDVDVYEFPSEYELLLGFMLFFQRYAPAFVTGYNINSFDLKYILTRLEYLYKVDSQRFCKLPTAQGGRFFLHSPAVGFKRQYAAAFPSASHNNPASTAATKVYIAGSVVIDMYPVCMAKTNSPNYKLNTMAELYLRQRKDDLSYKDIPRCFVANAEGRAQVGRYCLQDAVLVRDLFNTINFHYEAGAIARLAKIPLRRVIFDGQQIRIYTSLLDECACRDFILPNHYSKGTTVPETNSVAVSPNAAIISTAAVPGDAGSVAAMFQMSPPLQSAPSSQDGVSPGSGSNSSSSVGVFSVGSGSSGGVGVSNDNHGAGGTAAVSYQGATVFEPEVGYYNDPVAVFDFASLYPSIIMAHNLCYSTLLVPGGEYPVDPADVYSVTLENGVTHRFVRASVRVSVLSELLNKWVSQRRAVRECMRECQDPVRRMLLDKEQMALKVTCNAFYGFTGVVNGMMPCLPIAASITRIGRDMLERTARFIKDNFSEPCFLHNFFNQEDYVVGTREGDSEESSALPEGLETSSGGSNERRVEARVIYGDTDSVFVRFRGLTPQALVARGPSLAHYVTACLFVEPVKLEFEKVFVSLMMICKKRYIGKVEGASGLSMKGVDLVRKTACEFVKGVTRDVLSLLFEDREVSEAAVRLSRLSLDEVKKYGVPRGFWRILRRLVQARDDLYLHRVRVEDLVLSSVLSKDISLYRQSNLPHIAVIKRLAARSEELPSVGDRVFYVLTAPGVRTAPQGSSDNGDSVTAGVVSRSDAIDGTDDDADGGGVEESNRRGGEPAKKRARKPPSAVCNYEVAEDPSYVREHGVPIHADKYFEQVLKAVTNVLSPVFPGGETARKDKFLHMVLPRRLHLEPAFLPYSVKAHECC
Provide the measurement as a number trailed by its unit.

# record_smiles, IC50
records = [
    ("COc1ncc(O[C@H]2CCN3C(=O)OC[C@@H]3C2)cc1C(=O)NCc1ccc(Cl)cc1", "249 nM"),
    ("COc1nc(-c2ccncc2)c(O[C@H]2CCN3C(=O)OC[C@@H]3C2)cc1C(=O)NCc1ccc(Cl)cc1", "10.4 nM"),
    ("CN1CCN(CCCOc2nc(-c3cnn(C(F)F)c3)c(O[C@H]3CCN4C(=O)OC[C@@H]4C3)cc2C(=O)NCc2ccc(Cl)cc2)CC1", "14.1 nM"),
]

Continue with the molecule presented below.
# query: IC50 of entry `COc1nc(-c2ccc3[nH]ccc3c2)c(O[C@H]2CCN3C(=O)OC[C@@H]3C2)cc1C(=O)NCc1ccc(Cl)cc1`
81.5 nM

###

tested on: VZV; test: Viral qPCR assay, VZV; format: cell-based, varicella zoster virus; conditions: Human alphaherpesvirus 3, 72 h, MeWo or MRC5 cells, 0.04-0.1 pfu/cell, growth medium, viral genome copies by qPCR
readout: EC50 (µM)
I only need the number, in µM, no unit after it.

Past entries and their recorded results:
# record_smiles, experimental_system, EC50, µM
rows = [
    ("COCCn1cc(-c2nc(OC)c(C(=O)NCc3ccc(Cl)cc3)cc2O[C@H]2CCN3C(=O)OC[C@@H]3C2)cn1", "VZV", 0.186),
    ("COc1nc(-c2cc3ccccc3o2)c(O[C@H]2CCN3C(=O)OC[C@@H]3C2)cc1C(=O)NCc1ccc(Cl)cc1", "VZV", 1.87),
    ("COc1nc(-c2cnn(Cc3ccccn3)c2)c(O[C@H]2CCN3C(=O)OC[C@@H]3C2)cc1C(=O)NCc1ccc(Cl)cc1", "VZV", 0.355),
]

# query: EC50 of entry `CC1(COc2nc(-c3cnn(C(F)F)c3)c(O[C@H]3CCN4C(=O)OC[C@@H]4C3)cc2C(=O)NCc2ccc(Cl)cc2)COC1`
0.286
